# maps each entry to its Ratio
Test system: Moraxella catarrhalis
Assay: Ratio of linezolid MIC to compound MIC for Moraxella catarrhalis SR26840 clinical isolate
Type: functional
MEASURED_ENDPOINT: Ratio

In [3]: df
Out[3]:
                               given_smiles  recorded_result
0  CC(=S)NC[C@H]1CN(c2cc(F)c(N3CCON(C(=O)CO)CC3)c(F)c2)C(=O)O1                4
1  COC(=S)NC[C@H]1CN(c2cc(F)c(N3CCNN(C(=O)CO)CC3)c(F)c2)C(=O)O1                4
2  COC(=S)NC[C@H]1CN(c2cc(F)c(N3CCON(C(=O)CO)CC3)c(F)c2)C(=O)O1                4
3  CC(=S)NC[C@H]1CN(c2ccc(N3CCNN(C(=O)CO)CC3)c(F)c2)C(=O)O1                4
4  CC(=S)NC[C@H]1CN(c2cc(F)c(N3CCNN(C(=O)CO)CC3)c(F)c2)C(=O)O1                4
5  COC(=S)NC[C@H]1CN(c2ccc(N3CCNN(C(=O)CO)CC3)c(F)c2)C(=O)O1                4

* * *

System: Enterococcus faecium
Experiment: Antibacterial activity against Enterococcus faecium SR7940 clinical isolate assessed as growth inhibition by CLSI broth microdilution method
Assay type: functional
Sorting guide: entries reporting MIC beneath 0.5 µg/mL go in the Satisfied pile, the rest go in the Not satisfied pile.

                               given_smiles         system_tested  qualitative_label
0  O=C(CO)N1CCN(c2ccc(N3C[C@H](CNc4ccon4)OC3=O)cc2F)CCN1  Enterococcus faecium      Not satisfied
1  COC(=S)NC[C@H]1CN(c2ccc(N3CCNN(C(=O)CO)CC3)c(F)c2)C(=O)O1  Enterococcus faecium          Satisfied
2  CC(=O)NC[C@H]1CN(c2cc(F)c(N3CCNOCC3)c(F)c2)C(=O)O1  Enterococcus faecium      Not satisfied
3  O=C1O[C@@H](CNc2ccon2)CN1c1cc(F)c(N2CCNOCC2)c(F)c1  Enterococcus faecium      Not satisfied
4  O=C(CO)N1CCN(c2ccc(N3C[C@H](Cn4ccnn4)OC3=O)cc2F)CCN1  Enterococcus faecium      Not satisfied
5  COC(=S)NC[C@H]1CN(c2cc(F)c(N3CCNOCC3)c(F)c2)C(=O)O1  Enterococcus faecium          Satisfied
6  CC(=O)NC[C@H]1CN(c2cc(F)c(N3CCNN(C(=O)CO)CC3)c(F)c2)C(=O)O1  Enterococcus faecium      Not satisfied
7  CC(=S)NC[C@H]1CN(c2cc(F)c(N3CCON(C(=O)CO)CC3)c(F)c2)C(=O)O1  Enterococcus faecium          Satisfied

* * *

Test system: Staphylococcus aureus
Experiment: Antibacterial activity against linezolid-resistant Staphylococcus aureus NRS271 assessed as growth inhibition by CLSI broth microdilution method
Assay type: functional
MEASURED_ENDPOINT: MIC (µg/mL)

>>> print(df.to_string())
                               given_smiles          system_tested  unit_symbol  recorded_result
0  O=C(CO)N1CCN(c2c(F)cc(N3C[C@H](Cn4ccnn4)OC3=O)cc2F)CCO1  Staphylococcus aureus        µg/mL               16
1  O=C(CO)N1CCN(c2ccc(N3C[C@H](Cn4ccnn4)OC3=O)cc2F)CCN1  Staphylococcus aureus        µg/mL               64
2  CC(=S)NC[C@H]1CN(c2cc(F)c(N3CCON(C(=O)CO)CC3)c(F)c2)C(=O)O1  Staphylococcus aureus        µg/mL                2
3  CC(=S)NC[C@H]1CN(c2cc(F)c(N3CCNN(C(=O)CO)CC3)c(F)c2)C(=O)O1  Staphylococcus aureus        µg/mL                1
4  COC(=S)NC[C@H]1CN(c2cc(F)c(N3CCON(C(=O)CO)CC3)c(F)c2)C(=O)O1  Staphylococcus aureus        µg/mL                2
5  COC(=S)NC[C@H]1CN(c2cc(F)c(N3CCNN(C(=O)CO)CC3)c(F)c2)C(=O)O1  Staphylococcus aureus        µg/mL                2
6  CC(=O)NC[C@H]1CN(c2ccc(N3CCN(C(=O)CO)CC3)c(F)c2)C(=O)O1  Staphylococcus aureus        µg/mL               32
7  COC(=S)NC[C@H]1CN(c2cc(F)c(N3CCNOCC3)c(F)c2)C(=O)O1  Staphylococcus aureus        µg/mL                4
8  COC(=S)NC[C@H]1CN(c2ccc(N3CCNN(C(=O)CO)CC3)c(F)c2)C(=O)O1  Staphylococcus aureus        µg/mL                2

* * *

Test system: Staphylococcus aureus
Test: Antibacterial activity against Staphylococcus aureus SR20549 clinical isolate assessed as growth inhibition by CLSI broth microdilution method
Type: functional
MEASURED_ENDPOINT: MIC

>>> df
                               given_smiles  measured_endpoint  recorded_result
0  CC(=O)NC[C@H]1CN(c2cc(F)c(N3CCNN(C(=O)CO)CC3)c(F)c2)C(=O)O1                MIC          1 µg/mL
1  O=C(CO)N1CCN(c2c(F)cc(N3C[C@H](CNc4ccon4)OC3=O)cc2F)CCN1                MIC        0.5 µg/mL
2  CC(=O)NC[C@H]1CN(c2ccc(N3CCN(C(=O)CO)CC3)c(F)c2)C(=O)O1                MIC          1 µg/mL

* * *

Tested on: Staphylococcus aureus
Assay: Antibacterial activity against linezolid-resistant Staphylococcus aureus NRS271 assessed as growth inhibition by CLSI broth microdilution method
Format: functional
# maps each entry to its MIC
MEASURED_ENDPOINT: MIC (µg/mL)

>>> df
                               given_smiles  recorded_result
0  CC(=O)NC[C@H]1CN(c2ccc(N3CCNN(C(=O)CO)CC3)c(F)c2)C(=O)O1               64
1  CC(=O)NC[C@H]1CN(c2cc(F)c(N3CCON(C(=O)CO)CC3)c(F)c2)C(=O)O1               32
2  O=C(CO)N1CCN(c2c(F)cc(N3C[C@H](Cn4ccnn4)OC3=O)cc2F)CCN1               16
3  O=C(CO)N1CCN(c2c(F)cc(N3C[C@H](CNc4ccon4)OC3=O)cc2F)CCO1                8
4  O=C(CO)N1CCN(c2c(F)cc(N3C[C@H](CNc4ccon4)OC3=O)cc2F)CCN1                8
5  O=C1O[C@@H](CNc2ccon2)CN1c1cc(F)c(N2CCNOCC2)c(F)c1               16
6  CC(=S)NC[C@H]1CN(c2ccc(N3CCNN(C(=O)CO)CC3)c(F)c2)C(=O)O1                8
7  CC(=O)NC[C@H]1CN(c2cc(F)c(N3CCNOCC3)c(F)c2)C(=O)O1               16

* * *

# maps each entry to its MIC
Test system: Enterococcus faecium
Assay: Antibacterial activity against Enterococcus faecium SR7940 clinical isolate assessed as growth inhibition by CLSI broth microdilution method
Type: functional
MEASURED_ENDPOINT: MIC (µg/mL)

>>> df
                               given_smiles         system_tested  unit_symbol  recorded_result
0  CC(=S)NC[C@H]1CN(c2cc(F)c(N3CCNOCC3)c(F)c2)C(=O)O1  Enterococcus faecium        µg/mL            0.125
1  CC(=O)NC[C@H]1CN(c2ccc(N3CCN(C(=O)CO)CC3)c(F)c2)C(=O)O1  Enterococcus faecium        µg/mL                2
2  CC(=S)NC[C@H]1CN(c2cc(F)c(N3CCNN(C(=O)CO)CC3)c(F)c2)C(=O)O1  Enterococcus faecium        µg/mL            0.125
3  COC(=S)NC[C@H]1CN(c2cc(F)c(N3CCNN(C(=O)CO)CC3)c(F)c2)C(=O)O1  Enterococcus faecium        µg/mL             0.25
4  COC(=S)NC[C@H]1CN(c2cc(F)c(N3CCON(C(=O)CO)CC3)c(F)c2)C(=O)O1  Enterococcus faecium        µg/mL             0.25
5  O=C(CO)N1CCN(c2c(F)cc(N3C[C@H](Cn4ccnn4)OC3=O)cc2F)CCN1  Enterococcus faecium        µg/mL                1
6  O=C1O[C@@H](Cn2ccnn2)CN1c1cc(F)c(N2CCNOCC2)c(F)c1  Enterococcus faecium        µg/mL                1
7  CC(=O)NC[C@H]1CN(c2cc(F)c(N3CCON(C(=O)CO)CC3)c(F)c2)C(=O)O1  Enterococcus faecium        µg/mL                2
8  CC(=O)NC[C@H]1CN(c2ccc(N3CCNN(C(=O)CO)CC3)c(F)c2)C(=O)O1  Enterococcus faecium        µg/mL                4
9  CC(=O)NC[C@H]1CN(c2ccc(N3CCOCC3)c(F)c2)C(=O)O1  Enterococcus faecium        µg/mL                2
